Hello, the source for this data is ChEMBL document CHEMBL1145536, in case you need it.

Test system: Mycobacterium tuberculosis
Assay: Antimicrobial activity against non replicating persistence Mycobacterium tuberculosis H37Rv in aerobic condition assessed as bacterial density after 7 days
Format: functional
Conditions: 168 h
Can you tell me MIC for the items I'm about to list?
Numbers only, in µM.

## Task Record request: MIC value, item CN(C)c1ccc(O)c2c1C[C@H]1C[C@H]3[C@H](N(C)C)C(O)=C(C(N)=O)C(=O)[C@@]3(O)C(O)=C1C2=O [MINOCYCLINE]
## Result 7.2

## Task // repeat for CCC[C@@H]1C[C@@H](C(=O)N[C@@H]([C@H]2O[C@H](SC)[C@H](O)[C@@H](O)[C@H]2O)[C@@H](C)O)N(C)C1 [LINCOMYCIN] and report
## Result 104

## Task // repeat for CC(=O)Nc1ccc(/C=N/NC(N)=S)cc1 [AMITHIOZONE] and report
## Result 31.3

## Task // repeat for CC1COc2c(N3CCN(C)CC3)c(F)cc3c(=O)c(C(=O)O)cn1c23 (centres undefined) [OFLOXACIN] and report
## Result 0.7

## Task // repeat for CC(=O)NC[C@H]1CN(c2ccc(N3CCOCC3)c(F)c2)C(=O)O1 [LINEZOLID] and report
## Result 1.9

## Task // repeat for CC[C@H]1OC(=O)[C@H](C)[C@@H](O[C@H]2C[C@@](C)(OC)[C@@H](O)[C@H](C)O2)[C@H](C)[C@@H](O[C@@H]2O[C@H](C)C[C@H](N(C)C)[C@H]2O)[C@](C)(OC)C[C@@H](C)C(=O)[C@H](C)[C@@H]2N(NCCCc3ccnc4ccccc34)C(=O)O[C@@]21C and report
## Result 1.8

Field: MIC. Fill in for each record below.
1. CC(=O)O[C@H]1C[C@@]2(C)[C@@H](C[C@@H](O)[C@H]3[C@@]4(C)CC[C@@H](O)[C@@H](C)[C@@H]4CC[C@@]32C)/C1=C(\CCC=C(C)C)C(=O)O [FUSIDIC ACID]
2. O=C1CN(/N=C/c2ccc([N+](=O)[O-])o2)C(=O)N1 [NITROFURANTOIN]
3. O=C1OCCN1/N=C/c1ccc([N+](=O)[O-])o1 [FURAZOLIDONE]
4. CC(=O)N1CCN(c2ccc(OC[C@H]3CO[C@](Cn4ccnc4)(c4ccc(Cl)cc4Cl)O3)cc2)CC1 [KETOCONAZOLE]

## Result
1. 7
2. 0.9
3. 1
4. 7.6
